- System: HeLa cells
- EXPERIMENTAL PROTOCOL: MTT assay for cytotoxicity
- EXPERIMENTAL PARAMETERS: 160 nM, 2 h
Returns: string. Value is met if measured MTT (% Cell Survival) 160 nM is below 50%, and not met if it is greater than or equal to it.

[[record]]
compound = "CCCc1ccc(B(O)O)cc1"
label = "not met"

[[record]]
compound = "OB(O)c1cc2ccccc2nc1Cl"
label = "met"

[[record]]
compound = "OB(O)c1cccc(O)c1 [3-hydroxyphenylboronic acid]"
label = "not met"

[[record]]
compound = "N#Cc1cc(B(O)O)ccc1F"
label = "met"

[[record]]
compound = "N#Cc1ccc(B(O)O)cc1"
label = "not met"

[[record]]
compound = "OB(O)c1cnn(Cc2ccccc2)c1"
label = "not met"


###

Below, each entry is listed with its recorded MTT (% Cell Survival) 80 nM.
- Tested on: HeLa cells
- EXPERIMENTAL PROTOCOL: MTT assay for cytotoxicity
- EXPERIMENTAL PARAMETERS: 80 nM, 2 h
PARAMETER: MTT (% Cell Survival) 80 nM

[[record]]
test_smiles = "OB(O)C1=CCCC1"
parameter = "MTT (% Cell Survival) 80 nM"
observed_value = "79.90%"

[[record]]
test_smiles = "CN(C)S(=O)(=O)c1ccccc1B(O)O"
parameter = "MTT (% Cell Survival) 80 nM"
observed_value = "76.38%"

[[record]]
test_smiles = "NC(=O)c1ccc(B(O)O)cc1"
parameter = "MTT (% Cell Survival) 80 nM"
observed_value = "97.67%"

[[record]]
test_smiles = "Cc1noc(C)c1B(O)O"
parameter = "MTT (% Cell Survival) 80 nM"
observed_value = "90.63%"

[[record]]
test_smiles = "OB(O)c1cccc2c1oc1ccccc12"
parameter = "MTT (% Cell Survival) 80 nM"
observed_value = "75.50%"

[[record]]
test_smiles = "OB(O)c1cncc(Br)c1"
parameter = "MTT (% Cell Survival) 80 nM"
observed_value = "37.2764%"

[[record]]
test_smiles = "CCCc1ccc(B(O)O)cc1"
parameter = "MTT (% Cell Survival) 80 nM"
observed_value = "202.92%"

[[record]]
test_smiles = "OB(O)c1ccsc1"
parameter = "MTT (% Cell Survival) 80 nM"
observed_value = "80.00%"

[[record]]
test_smiles = "OB(O)c1ccc2ccccc2c1"
parameter = "MTT (% Cell Survival) 80 nM"
observed_value = "37.2192%"

[[record]]
test_smiles = "CC(C)[Si](C(C)C)(C(C)C)n1ccc(B(O)O)c1"
parameter = "MTT (% Cell Survival) 80 nM"
observed_value = "65.92%"

[[record]]
test_smiles = "OB(O)c1cscc1Br"
parameter = "MTT (% Cell Survival) 80 nM"
observed_value = "95.90%"


###

- Tested on: NF-κB
- EXPERIMENTAL PROTOCOL: NF-κB assay for inflammation (nuclear translocation of NF-κB, immunocytochemistry, PCC)
- EXPERIMENTAL PARAMETERS: HeLa cells, 160 nM, 2 h; PCC between nuclear and cytoplasmic fraction of NF-κB
Quick rule for you: Inflammation (PCC) 160 nM at 0.1 or higher means Satisfied, lower means Not satisfied.

[[record]]
molecule = "CC(C)OB(CBr)OC(C)C [diisopropyl(bromomethyl)boronate]"
system = "NF-κB"
label = "Satisfied"

[[record]]
molecule = "OB(O)c1ccc(O)cc1 [4-hydroxyphenylboronic acid]"
system = "NF-κB"
label = "Satisfied"

[[record]]
molecule = "N#Cc1cc(B(O)O)ccc1F"
system = "NF-κB"
label = "Not satisfied"

[[record]]
molecule = "O=[N+]([O-])/C=C/c1cccc(B(O)O)c1 [3-[(E)-2-nitrovinyl]phenylboronic acid]"
system = "NF-κB"
label = "Satisfied"

[[record]]
molecule = "OB(O)c1cccc(Cl)c1"
system = "NF-κB"
label = "Satisfied"

[[record]]
molecule = "CN(C)c1ccc(B(O)O)cc1"
system = "NF-κB"
label = "Satisfied"

[[record]]
molecule = "OB(O)c1cccc(O)c1 [3-hydroxyphenylboronic acid]"
system = "NF-κB"
label = "Not satisfied"

[[record]]
molecule = "OB(O)c1cc2ccccc2nc1Cl"
system = "NF-κB"
label = "Satisfied"

[[record]]
molecule = "CCS(=O)(=O)c1ccc(B(O)O)cc1"
system = "NF-κB"
label = "Satisfied"

[[record]]
molecule = "OB(O)c1cccc2c1Sc1ccccc1S2"
system = "NF-κB"
label = "Satisfied"

[[record]]
molecule = "OB(O)c1c(F)c(F)c(F)c(F)c1F"
system = "NF-κB"
label = "Satisfied"

[[record]]
molecule = "OB(O)c1cc(Br)cs1"
system = "NF-κB"
label = "Satisfied"

[[record]]
molecule = "OB(O)c1cc2cc(Br)ccc2s1"
system = "NF-κB"
label = "Satisfied"

[[record]]
molecule = "OB(O)c1ccnc(Cl)c1"
system = "NF-κB"
label = "Not satisfied"

[[record]]
molecule = "OB(O)c1cccnc1Br"
system = "NF-κB"
label = "Satisfied"

[[record]]
molecule = "OB(O)c1cnn(Cc2ccccc2)c1"
system = "NF-κB"
label = "Not satisfied"

[[record]]
molecule = "OB(O)c1ccc2ccccc2c1"
system = "NF-κB"
label = "Not satisfied"

[[record]]
molecule = "Cc1noc(C)c1B(O)O"
system = "NF-κB"
label = "Not satisfied"

[[record]]
molecule = "O=c1[nH]cc(B(O)O)c(=O)[nH]1"
system = "NF-κB"
label = "Not satisfied"


###

- Tested on: NF-κB
- EXPERIMENTAL PROTOCOL: NF-κB assay for inflammation (nuclear translocation of NF-κB, immunocytochemistry, PCC)
- EXPERIMENTAL PARAMETERS: HeLa cells, 80 nM, 2 h; PCC between nuclear and cytoplasmic fraction of NF-κB
Please note: condition met applies when Inflammation (PCC) 80 nM is 0.05 or greater, and condition not met applies otherwise.

[[record]]
test_smiles = "OB(O)c1cccc(OCc2ccccc2)c1"
label = "condition met"

[[record]]
test_smiles = "O=Cc1sccc1B(O)O"
label = "condition not met"

[[record]]
test_smiles = "OB(O)c1ccc2ccccc2c1"
label = "condition met"

[[record]]
test_smiles = "OB(O)c1cnn(Cc2ccccc2)c1"
label = "condition not met"


###

- Tested on: HeLa cells
- EXPERIMENTAL PROTOCOL: MTT assay for cytotoxicity
- EXPERIMENTAL PARAMETERS: 80 nM, 2 h
PARAMETER: MTT (% Cell Survival) 80 nM (%)

[[record]]
compound = "OB(O)c1cccc2cnccc12 [5-isoquinolineboronic acid]"
observed_value = 60.84

[[record]]
compound = "OB(O)c1ccc(-c2ccccc2)s1 [5-phenyl-2-thienylboronic acid]"
observed_value = 81.24

[[record]]
compound = "CN(C)c1cccc(B(O)O)c1 [3-(N,N-dimethylamino)phenyl boronic acid]"
observed_value = 86.2247

[[record]]
compound = "OB(O)/C=C/c1ccccc1 [trans-2-Phenylvinylboronic acid]"
observed_value = 99.51

[[record]]
compound = "O=Cc1ccoc1B(O)O [3-formylfuran-2-boronic acid]"
observed_value = 73.72


###

- Test system: NF-κB
- EXPERIMENTAL PROTOCOL: NF-κB assay for inflammation (nuclear translocation of NF-κB, immunocytochemistry, PCC)
- EXPERIMENTAL PARAMETERS: HeLa cells, 80 nM, 2 h; PCC between nuclear and cytoplasmic fraction of NF-κB
Each item that follows carries a reported Inflammation (PCC) 80 nM.
PARAMETER: Inflammation (PCC) 80 nM

[[record]]
test_smiles = "O=Cc1ccoc1B(O)O"
observed_value = 0.0274

[[record]]
test_smiles = "OB(O)c1cccs1"
observed_value = "−0.0343"

[[record]]
test_smiles = "OB(O)c1cnc(OCc2ccccc2)nc1OCc1ccccc1"
observed_value = "−0.0533"

[[record]]
test_smiles = "COc1ccc(C#N)cc1B(O)O"
observed_value = "−0.0523"

[[record]]
test_smiles = "OB(O)C1CC1"
observed_value = 0.03475

[[record]]
test_smiles = "NC(=O)c1ccc(B(O)O)cc1"
observed_value = 0.01211

[[record]]
test_smiles = "OB(O)c1cccc2cnccc12"
observed_value = 0.02463

[[record]]
test_smiles = "OB(O)c1ccnc(Cl)c1"
observed_value = 0.00374

[[record]]
test_smiles = "OB(O)c1cccc(Cl)c1"
observed_value = 0.03311

[[record]]
test_smiles = "CCOc1ccc(B(O)O)cn1"
observed_value = "−0.0136"


###

- System: HeLa cells
- EXPERIMENTAL PROTOCOL: MTT assay for cytotoxicity
- EXPERIMENTAL PARAMETERS: 160 nM, 2 h
PARAMETER: MTT (% Cell Survival) 160 nM (%)

[[record]]
test_smiles = "OB(O)c1cc(Br)cs1"
parameter = "MTT (% Cell Survival) 160 nM"
observed_value = 62.08

[[record]]
test_smiles = "OB(O)c1ccc(Cl)cc1Cl"
parameter = "MTT (% Cell Survival) 160 nM"
observed_value = 79.9

[[record]]
test_smiles = "OB(O)c1ccnc(Cl)c1"
parameter = "MTT (% Cell Survival) 160 nM"
observed_value = 56.36

[[record]]
test_smiles = "O=C(O)c1cc(B(O)O)cc([N+](=O)[O-])c1"
parameter = "MTT (% Cell Survival) 160 nM"
observed_value = 33.3

[[record]]
test_smiles = "O=Cc1sccc1B(O)O"
parameter = "MTT (% Cell Survival) 160 nM"
observed_value = 46.21

[[record]]
test_smiles = "OB(O)C1=CCCC1"
parameter = "MTT (% Cell Survival) 160 nM"
observed_value = 68.16

[[record]]
test_smiles = "OB(O)c1ccccc1Cl"
parameter = "MTT (% Cell Survival) 160 nM"
observed_value = 45.45

[[record]]
test_smiles = "CCOc1ccc(B(O)O)cn1"
parameter = "MTT (% Cell Survival) 160 nM"
observed_value = 33.80

[[record]]
test_smiles = "CC(C)(C)OC(=O)n1cccc1B(O)O"
parameter = "MTT (% Cell Survival) 160 nM"
observed_value = 39.41

[[record]]
test_smiles = "CC(C)[Si](C(C)C)(C(C)C)n1ccc(B(O)O)c1"
parameter = "MTT (% Cell Survival) 160 nM"
observed_value = 56.94

[[record]]
test_smiles = "C=C(B(O)O)c1ccccc1"
parameter = "MTT (% Cell Survival) 160 nM"
observed_value = 58.91

[[record]]
test_smiles = "OB(O)c1cscc1Br"
parameter = "MTT (% Cell Survival) 160 nM"
observed_value = 97.49

[[record]]
test_smiles = "OB(O)c1cnc(OCc2ccccc2)nc1OCc1ccccc1"
parameter = "MTT (% Cell Survival) 160 nM"
observed_value = 74.74

[[record]]
test_smiles = "OB(O)c1ccc(Br)nc1"
parameter = "MTT (% Cell Survival) 160 nM"
observed_value = 35.78

[[record]]
test_smiles = "OB(O)c1cccc(Cl)c1"
parameter = "MTT (% Cell Survival) 160 nM"
observed_value = 38.55

[[record]]
test_smiles = "Cc1noc(C)c1B(O)O"
parameter = "MTT (% Cell Survival) 160 nM"
observed_value = 42.89

[[record]]
test_smiles = "OB(O)c1ccc(-c2ccccc2)s1"
parameter = "MTT (% Cell Survival) 160 nM"
observed_value = 86.23

[[record]]
test_smiles = "OB(O)c1ccc2ccccc2c1"
parameter = "MTT (% Cell Survival) 160 nM"
observed_value = 21.1

[[record]]
test_smiles = "OB(O)c1cccs1"
parameter = "MTT (% Cell Survival) 160 nM"
observed_value = 61.19

[[record]]
test_smiles = "Cn1c(B(O)O)cc2ccccc21"
parameter = "MTT (% Cell Survival) 160 nM"
observed_value = 47.46

[[record]]
test_smiles = "NC(=O)c1ccc(B(O)O)cc1"
parameter = "MTT (% Cell Survival) 160 nM"
observed_value = 57.28


Values were extracted from patent US9278068B2.
